Biological target: Cyclin-dependent kinase 5/CDK5 activator 1 (Homo sapiens)
Sequence (Q00535 whole entry): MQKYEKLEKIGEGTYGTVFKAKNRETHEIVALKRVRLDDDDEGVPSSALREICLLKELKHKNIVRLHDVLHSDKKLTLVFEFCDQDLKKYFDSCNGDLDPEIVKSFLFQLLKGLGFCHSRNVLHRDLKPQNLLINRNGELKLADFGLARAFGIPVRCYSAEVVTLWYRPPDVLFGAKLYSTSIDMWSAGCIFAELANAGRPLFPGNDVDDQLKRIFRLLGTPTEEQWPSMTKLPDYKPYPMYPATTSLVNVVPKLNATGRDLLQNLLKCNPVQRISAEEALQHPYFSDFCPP
Sequence (Q15078 whole entry, further chain): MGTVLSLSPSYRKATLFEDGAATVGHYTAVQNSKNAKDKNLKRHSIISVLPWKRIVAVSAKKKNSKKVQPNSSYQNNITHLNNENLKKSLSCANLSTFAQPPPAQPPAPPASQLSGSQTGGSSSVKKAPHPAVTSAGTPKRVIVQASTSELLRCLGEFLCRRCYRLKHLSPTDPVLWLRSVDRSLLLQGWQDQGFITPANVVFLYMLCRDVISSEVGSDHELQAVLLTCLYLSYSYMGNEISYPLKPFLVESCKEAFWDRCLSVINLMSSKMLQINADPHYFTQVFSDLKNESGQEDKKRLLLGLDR
Experiment: Ability to inhibit Cyclin-dependent kinase 5-p35.
measured_attribute: IC50 (µM)

Check out these entries, answers already filled in.
- structure_string: "O=C(Nc1csc(-c2ccccc2)n1)NN1CCOCC1"
  measurement_units: "µM"
  numeric_readout: 9
- structure_string: "O=C(NOc1ccccc1)Nc1csc(Cc2c(Cl)cccc2Cl)n1"
  measurement_units: "µM"
  numeric_readout: 0.9
- structure_string: "COc1ccc(OCc2nc(NC(=O)NN3CCOCC3)cs2)cc1"
  measurement_units: "µM"
  numeric_readout: 30
- structure_string: "CONC(=O)Nc1csc(Cc2c(Cl)cccc2Cl)n1"
  measurement_units: "µM"
  numeric_readout: 9
- structure_string: "CS(=O)(=O)Cc1nc(NC(=O)NOc2ccccc2)cs1"
  measurement_units: "µM"
  numeric_readout: 6

A. Cc1cccc(-c2nc(NC(=O)NOc3ccccc3)cs2)c1
B. O=C(Nc1csc(CS(=O)(=O)c2ccccn2)n1)NN1CCOCC1
C. O=C(Nc1csc(Cc2c(Cl)cccc2Cl)n1)NN1CCCCC1
Reorder: IC50, max to min. Return value: ordered labels per request. A, B, C
